Test: Half life of the compound in PBS assessed as parent compound remaining by HPLC analysis
Assay type: physicochemical
half-life overview
Expressed in h, but write only the number.

Fill in: half-life of NC(=O)/C=C/c1cc(C(F)(F)F)cc2c(=O)nc(N3CCN(CC4CCCCC4)CC3)sc12 is ___ 10

Same thing, different molecule: O=c1nc(N2CCN(CC3CCCCC3)CC2)sc2nc(Cl)ncc12 4

Same thing, different molecule: N#Cc1cc(C(F)(F)F)cc2c(=O)nc(N3CCN(CC4CCCCC4)CC3)sc12 12

Same thing, different molecule: COC(=O)C#Cc1cc(C(F)(F)F)cc2c(=O)nc(N3CCN(CC4CCCCC4)CC3)sc12 1.2

Same thing, different molecule: COC(=O)/C=C/c1cc(C(F)(F)F)cc2c(=O)nc(N3CCN(CC4CCCCC4)CC3)sc12 1

Same thing, different molecule: N#C/C=C/c1cc(C(F)(F)F)cc2c(=O)nc(N3CCN(CC4CCCCC4)CC3)sc12 0.2

Recorded values, source ChEMBL document CHEMBL4706562.
